Below, each of the compounds is paired with its reported Kd value.
- system.under.test: Fc-fusion protein of human PSMA (hPSMA-Fc) (Homo sapiens)
- Construct: purchased Acro Biosystems PSA-H5264
- Sequence (Q04609 44-750 limits assumed): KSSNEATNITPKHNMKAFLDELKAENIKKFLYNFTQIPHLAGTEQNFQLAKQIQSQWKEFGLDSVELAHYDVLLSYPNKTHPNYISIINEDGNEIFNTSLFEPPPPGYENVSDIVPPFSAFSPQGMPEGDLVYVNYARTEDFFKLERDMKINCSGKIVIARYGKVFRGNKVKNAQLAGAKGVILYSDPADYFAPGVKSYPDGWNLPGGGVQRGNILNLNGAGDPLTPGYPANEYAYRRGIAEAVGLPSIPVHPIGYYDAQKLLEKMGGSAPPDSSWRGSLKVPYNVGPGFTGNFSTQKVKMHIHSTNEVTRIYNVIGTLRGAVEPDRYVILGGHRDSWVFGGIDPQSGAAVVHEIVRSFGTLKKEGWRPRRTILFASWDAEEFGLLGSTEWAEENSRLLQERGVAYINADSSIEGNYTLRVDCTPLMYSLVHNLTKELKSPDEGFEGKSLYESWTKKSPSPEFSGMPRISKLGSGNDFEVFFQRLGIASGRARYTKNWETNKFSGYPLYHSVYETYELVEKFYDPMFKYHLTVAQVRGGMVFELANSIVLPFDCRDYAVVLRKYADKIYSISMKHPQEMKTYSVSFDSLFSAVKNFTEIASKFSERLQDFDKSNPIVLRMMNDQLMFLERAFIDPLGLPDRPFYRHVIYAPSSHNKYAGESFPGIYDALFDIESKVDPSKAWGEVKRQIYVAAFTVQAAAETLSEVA
- method.notes: Surface plasmon resonance assay (Biacore T200, single cycle kinetic)
- Assay type: binding
- condition.context: pKD category for PSMA SPR activity assay, hPSMA-Fc, 25° C.; read-out: pKD CAT (converted)
Numbered stars: 1 amine (or outer) side, 2 acyl side, 3 side chain; on linkers, the order of the positions; unused ones are H or OH. Bridge positions count the residues as written; N and C are the ends. Square brackets hold non-standard residues; d marks the D form. Peptide text beside a SMILES is read from it. * marks the point of attachment. X3 = O=C(O)CN1CCN(CC(=O)O)CCN(CC(=O)NCCCOCCOCCOCCCN*)CCN(CC(=O)O)CC1; DOTA = O=C(O)CN1CCN(CC(=O)O)CCN(CC(=O)*)CCN(CC(=O)O)CC1; Phe(4-Cl) = N[C@@H](Cc1ccc(Cl)cc1)C(=O)O; Phe(3-F) = N[C@@H](Cc1cccc(F)c1)C(=O)O; X1 = O=C(CC1CCN([*:1])CC1)[*:2]; Suc = O=C(CCC(=O)[*:2])[*:1]; Tle = CC(C)(C)[C@H](N)C(=O)O; Nle = CCCC[C@H](N)C(=O)O; Orn = NCCC[C@H](N)C(=O)O; Aib = CC(C)(N)C(=O)O

Solved entries:
- compound: "CC(=O)N[C@H](C(=O)NC(C)(C)C(=O)N[C@@H](Cc1cccc(F)c1)C(=O)N[C@H]1CSSC[C@@H](C(=O)N[C@H](C(=O)N[C@H](C(N)=O)[C@@H](C)O)C(C)(C)C)NC(=O)[C@H](CC(N)=O)NC(=O)C(C)(C)NC(=O)[C@H](CCCNC(=N)N)NC(=O)[C@H](CCCCN)NC1=O)[C@@H](C)O [PSM-0551] (Ac-T[Aib][Phe(3-F)]CKR[Aib]NC[Tle]T-NH2; disulfide 4-9)"
  Kd: "< 12.6 nM"
- compound: "CCCC[C@H](NC(=O)[C@@H]1CSSC[C@H](NC(=O)[C@H](Cc2ccccc2)NC(=O)[C@H](C)NC(=O)[C@@H](NC(=O)CCC(=O)NCCCOCCOCCOCCCNC(=O)CN2CCN(CC(=O)O)CCN(CC(=O)O)CCN(CC(=O)O)CC2)[C@@H](C)O)C(=O)N[C@@H](CCCCN)C(=O)N[C@@H](CCCNC(=N)N)C(=O)N[C@@H](C)C(=O)N[C@@H](CC(N)=O)C(=O)N1)C(=O)N[C@H](C(=O)N[C@@H](CC(=O)O)C(N)=O)[C@@H](C)O [PSM-0504] ({X3-Suc}-TAFCKRANC[Nle]TD-NH2; disulfide 4-9)"
  Kd: "12.6 to 126 nM"
- compound: "C[C@@H](O)[C@H](NC(=O)[C@@H](NC(=O)[C@@H]1CSSC[C@H](NC(=O)[C@H](Cc2ccc(Cl)cc2)NC(=O)C(C)(C)NC(=O)[C@@H](NC(=O)CC2CCN(C(=O)CN3CCN(CC(=O)O)CCN(CC(=O)O)CCN(CC(=O)O)CC3)CC2)[C@@H](C)O)C(=O)N[C@@H](CCCN)C(=O)N[C@@H](CCCNC(=N)N)C(=O)NC(C)(C)C(=O)N[C@@H](CC(N)=O)C(=O)N1)C(C)(C)C)C(N)=O [PSM-0511] ({DOTA}-[X1]T[Aib][Phe(4-Cl)]C[Orn]R[Aib]NC[Tle]T-NH2; disulfide 5-10)"
  Kd: "< 12.6 nM"
- compound: "CCCC[C@H](NC(=O)[C@@H]1CSSC[C@H](NC(=O)[C@H](Cc2ccccc2)NC(=O)[C@@H](C)NC(=O)[C@@H](NC(C)=O)[C@@H](C)O)C(=O)N[C@@H](CCCCN)C(=O)N[C@@H](CCCNC(=N)N)C(=O)N[C@@H](C)C(=O)N[C@@H](CC(N)=O)C(=O)N1)C(=O)N[C@H](C(=O)N[C@@H](CC(=O)O)C(N)=O)[C@@H](C)O"
  Kd: "> 501 nM"

Please look at the following compound next.
The compound listed as CC(=O)N[C@H](C(=O)NC(C)(C)C(=O)N[C@@H](Cc1ccccc1)C(=O)N[C@H]1CSSC[C@@H](C(=O)N[C@H](C(=O)N[C@H](C(N)=O)[C@@H](C)O)C(C)(C)C)NC(=O)[C@H](CC(N)=O)NC(=O)[C@H](C)NC(=O)[C@H](CCCNC(=N)N)NC(=O)[C@H](CCCCN)NC1=O)[C@@H](C)O [PSM-0552] (Ac-T[Aib]FCKRANC[Tle]T-NH2; disulfide 4-9) shows Kd equal to < 12.6 nM
